Hello, the source for this data is the Human Domainome abundance scans (Beltran et al. 2025), in case you need it.

B1: Chromodomain-helicase-DNA-binding protein 4, residues 623 to 675; numbered along this chain, Q14839 (parent)
chain: MIHRILNHSVDKKGHVHYLIKWRDLPYDQASWESEDVEIQDYDLFKQSYWNHR

Variants of: B1
experimentalProtocol: abundance fitness (aPCA) (normalised: wild type 0, dead -1); higher = more abundant; growth selection in yeast, the domain comes from the species named
conditionNotes: Homo sapiens
Label rule, in plain words: abundance fitness of -0.5 and up is Met, under -0.5 is Not met.

## Task For this variant, is measured abundance fitness -0.5 or higher? Q29G
## Result Not met

## Task Can S31H be said to have abundance fitness at or above -0.5?
## Result Not met

## Task Decide: is the reported value of abundance fitness for K13F equal to or greater than -0.5?
## Result Met

## Task Tell me whether abundance fitness is at least -0.5 here: D24K
## Result Met

## Task Record S31N ; criterion: abundance fitness no lower than -0.5. Met?
## Result Not met

***
## Task Please check the record V16A and state if its abundance fitness is at or above -0.5.
## Result Not met

## Task # check: abundance fitness of H17C is greater than or equal to -0.5
## Result Met

## Task Dear colleague, could you confirm whether Q29N has abundance fitness at or above -0.5?
## Result Met

## Task Confirm if abundance fitness reported for the variant H17V is -0.5 or above.
## Result Met

## Task Kindly determine if abundance fitness recorded for W32C is above or exactly -0.5.
## Result Not met

## Task Is it the case that D24V has abundance fitness reaching or exceeding -0.5?
## Result Not met
